# Lookup of reported PBM E-score of 8-mer keyed by entry
System: PmTbr T-box DNA-binding domain (GST fusion);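 note: 200 nM protein in PBS on universal arrays averaged over duplicate arrays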
Sequence: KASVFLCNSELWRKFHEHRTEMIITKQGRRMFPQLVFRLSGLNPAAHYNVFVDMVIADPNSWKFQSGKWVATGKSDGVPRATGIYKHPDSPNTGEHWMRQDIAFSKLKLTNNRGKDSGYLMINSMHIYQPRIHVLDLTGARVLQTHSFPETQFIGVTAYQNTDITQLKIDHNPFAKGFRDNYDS
Experiment description: PBM E-score of 8-mer (E-score (dimensionless, -0.5 to 0.5)); Tbr is Tbrain of the sea star Patiria miniata (Pm) or the sea urchin Strongylocentrotus purpuratus (Sp); higher = stronger binding preference
Setup conditions: the construct has about 5 more residues each side
The full ranking holds about 33,000 sequences; the median of “E-score (dimensionless, -0.5 to 0.5)” is about -0.049, and the highest 2% start at about 0.37. The sample holds the highest values, similar sequences and a random draw of the others, so the mix is not that of the screen.
The answer should be a number; do not append a unit.

Consider the following illustrative entries.
| Sequence chain | PBM E-score of 8-mer |
| --- | --- |
| TCCTATAA | -0.189 |
| AGGGTGCG | 0.356 |
| AATGGCGA | 0.163 |

Prompt: So what does the record say about PBM E-score of 8-mer for `CCTGACAC` ?
Response: 0.435

Prompt: Cool, now `AGCTGTGG`
Response: 0.0136

Prompt: Cool, now `ACTTTTTC`
Response: 0.124

Prompt: Cool, now `CACACGTA`
Response: 0.357

Prompt: Cool, now `AGTGGCAA`
Response: 0.304

Prompt: Cool, now `AGTCCTAG`
Response: -0.0285

Prompt: Cool, now `TATTCCGA`
Response: -0.274

Prompt: Cool, now `AAAGTGCG`
Response: 0.315

Prompt: Cool, now `TAGTGGGA`
Response: -0.0944

Prompt: Cool, now `GGTCGCAC`
Response: 0.373

Prompt: Cool, now `GCTGGCAC`
Response: 0.234

Prompt: Cool, now `GTCCAATA`
Response: -0.21

Prompt: Cool, now `AATCGCTG`
Response: -0.0604
